TEST_PROTOCOL: in vivo
STUDY_CONDITIONS: mouse, in vivo, po, mouse; Table III; read-out: DL50 (the source's name)
READOUT_NAME: LD50 (mg/kg)
The reply should be a number in mg/kg, with the unit left off.

stdin: Item under review: CCCCCNCC(N)=O.Cl [Compound 33, 2-n-pentylaminoacetamide hydrochloride] . Reported LD50?
stdout: 2240

* * *

TEST_PROTOCOL: in vivo
STUDY_CONDITIONS: mouse, in vivo, po, mice; Table II; read-out: DL50 (the source's name)
compounds and their reported LD50
The reply should be a number in mg/kg, with the unit left off.

stdin: Item under review: CCCCCCN(CC)CC(N)=O . Reported LD50?
stdout: 435

stdin: Please give the result for CCCCCCCCCCNCC(N)=O [Compound 14, 2-n-decylaminoacetamide] too.
stdout: 2600

stdin: Please give the result for CCCCCCCCCNCC(N)=O too.
stdout: 1950

stdin: Please give the result for CCCCCCN(C)CC(N)=O [Compound 30, 2-(N-n-hexyl-N-methylamino)acetamide] too.
stdout: 570

stdin: Please give the result for CCCCCCCCNCC(N)=O [Compound 1, 2-n-octylaminoacetamide] too.
stdout: 2220

* * *

TEST_PROTOCOL: in vivo
STUDY_CONDITIONS: mouse, in vivo, po
molecules and their reported selectivity ratio
# print the numeric value only

MOLECULE	selectivity ratio
CCCC(CCC)C(=O)O [Na Valproate, reference compound]	14

Let us examine a further case.
stdin: Item under review: CCC1(c2ccccc2)C(=O)NC(=O)NC1=O [Na Phenobarbital, reference compound] . Reported selectivity ratio?
stdout: 88

* * *

molecules and their reported DL50
Tested on: mice
TEST_PROTOCOL: in vivo
STUDY_CONDITIONS: oral, mice; Table II
The reply should be a number in mg/kg, with the unit left off.

Examples with their reported DL50 follow.
MOLECULE	NUMERIC_RESULT
CCCCCCNCC(N)=O [Compound 12, 2-n-hexylaminoacetamide]	2800
CCCCCCNCC(N)=O [Compound 2, 2-n-hexylaminoacetamide]	780
CCCCCCNCC(N)=O [Compound 31]	1650
CCCCCNCC(N)=O [Compound 26]	1950
CCCCCNCC(N)=O [Compound 3, 2-n-pentylaminoacetamide]	1925

Let us examine a further case.
stdin: Item under review: CCCCCCNCC(N)=O [Compound 27] . Reported DL50?
stdout: 860

* * *

molecules and their reported LD50
TEST_PROTOCOL: in vivo
STUDY_CONDITIONS: mouse, in vivo, po, mice; Table II; read-out: DL50 (the source's name)

COMPOUND	LD50
CCOC(=O)CCCCCCCNCC(N)=O	> 1000 mg/kg

stdin: Item under review: NC(=O)CNCCCCCCO . Reported LD50?
stdout: > 3000 mg/kg

stdin: Please give the result for COC(=O)CCCCCN(CC(N)=O)CC(N)=O too.
stdout: > 3000 mg/kg

* * *

Tested on: mice
TEST_PROTOCOL: in vivo
STUDY_CONDITIONS: oral, mice; Table II
compounds and their reported DL50

Examples with their reported DL50 follow.
COMPOUND	DL50
CCCCCNCC(N)=O [Compound 35]	> 3000 mg/kg
COC(=O)CCCCCCCNC(C(N)=O)C(N)=O [Compound 23]	> 1000 mg/kg
CCCCCNCC(N)=O [Compound 20]	> 1000 mg/kg

Let us examine a further case.
stdin: Item under review: CCCCCNCC(N)=O [Compound 34] . Reported DL50?
stdout: > 3000 mg/kg
